Target or test system: FAD-linked sulfhydryl oxidase ALR (Homo sapiens) (UniProt P55789)
Sequence (P55789 whole entry, looked up): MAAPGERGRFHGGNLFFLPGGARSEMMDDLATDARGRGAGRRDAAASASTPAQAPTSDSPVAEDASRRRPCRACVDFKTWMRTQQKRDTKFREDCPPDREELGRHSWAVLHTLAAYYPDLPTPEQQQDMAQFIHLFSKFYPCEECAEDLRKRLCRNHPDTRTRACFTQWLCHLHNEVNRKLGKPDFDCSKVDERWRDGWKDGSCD
Run description: ALR-catalysed DTT oxidation blockers – biochemical, H2O2 detection, HRP-luminol luminescence, single point, primary screen (AID 485317)
Test settings: purified ALR, active compounds read high, concentration not given here
About 11,000 (3.8%) of roughly 290,000 compounds were called active. This excerpt belongs to a sample that is enriched for actives.
Observable: inhibition

Worked cases, answers included:
>>> result("C=CC[C@@H](CC(=O)N[C@H](CO)Cc1ccccc1)C(=O)N[C@@H](COC(=O)[C@@H](CC=C)Cc1ccc(F)cc1)Cc1c[nH]c2ccccc12")
"10.3% (inactive)"
>>> result("COc1cc(OC)cc(-c2nc3nc(C)c(CCC(=O)NCc4ccco4)c(C)n3n2)c1")
"0.656% (inactive)"
>>> result("CC(C)CN(C(=O)CSc1nncn1C)C1CCS(=O)(=O)C1 (stereo unspecified)")
"0.148% (inactive)"
>>> result("COc1cc(C=NNC(=O)c2cccnc2)ccc1OC(=O)c1ccccc1F")
"20.1% (inactive)"
>>> result("CCN(CC(=O)NCc1ccc(Cl)cc1)C(=O)c1c(C)noc1C")
"-1.1% (inactive)"

Quick request: inhibition for each listed item, please.
1. COc1cccc(COC(=O)C2CCN(S(=O)(=O)c3cccs3)CC2)c1OC
2. Cc1ccc(C)c(OCC(=O)NNC(=O)C2CCC2)c1
3. COc1ccc(C(=O)Nc2ccccc2C(=O)NCc2ccco2)cc1
4. Cc1ccc([C@@H]2CC=C(C(=O)O)[C@H](c3cccc(Cl)c3)N2S(=O)(=O)c2ccc(C)cc2)cc1
5. CC1=C/C(=N\OS(=O)(=O)c2ccccc2)C=CC1=O
6. CCCc1ccc(OCC(O)CN2CCN(CCO)CC2)cc1 (stereo unspecified)

A:
1: -64% (inactive); 2: -3.99% (inactive); 3: -4.1% (inactive); 4: 4.58% (inactive); 5: 98.9% (active); 6: -1.03% (inactive)

====

Target or test system: FAD-linked sulfhydryl oxidase ALR (Homo sapiens) (UniProt P55789)
Run description: ALR-catalysed DTT oxidation blockers – biochemical, H2O2 detection, HRP-luminol luminescence, single point, primary screen (AID 485317)
Test settings: purified ALR, active compounds read high, concentration not given here
The whole screen tested about 290,000 compounds, of which about 11,000 (3.8%) were called active. The sample as a whole holds a higher share of actives than the screen did.
Observable: inhibition

>>> result("O=[N+]([O-])c1ccccc1Nc1ccc(O)cc1")
"99.6% (active)"
>>> result("Cc1cc(C)cc(-c2nnc(SCC(=O)NC3CC3)o2)c1")
"-0.0792% (inactive)"
>>> result("Nc1ccc(Nc2ccccc2)cc1")
"-2.25% (inactive)"
>>> result("CCN(C(=O)CSc1ncnc2sccc12)c1c(N)n(Cc2ccccc2)c(=O)[nH]c1=O")
"-0.954% (inactive)"

Here are 2 compounds. What values of inhibition were reported for them?
1. O=S(=O)(Nc1ccc2nc(-c3ccco3)[nH]c2c1)c1ccccc1
2. CN(CC(=O)Nc1ccc(Cl)c(C(F)(F)F)c1)C(=O)CCC(=O)c1ccccc1

A:
88.8% (active)
-3.88% (inactive)

Look up inhibition for the entries below, preserving their order.
1. Cc1ccc(Nc2ccccc2N)cc1
2. Cn1nnnc1SCC(=O)Nc1sccc1C(N)=O
3. Cn1c(CCN2CCCC2)nc2cc(NS(=O)(=O)c3ccccc3)ccc21
4. O=C(NCc1ccccc1CN1CCCC1)C1CCN(S(=O)(=O)c2ccc(Cl)cc2)CC1
5. O=C(COC(=O)c1cccc(Cl)c1)NC(=O)NCc1ccccc1

A:
1. 85.9% (active)
2. 23.5% (inactive)
3. -0.934% (inactive)
4. 2.81% (inactive)
5. -1.07% (inactive)

====

Target or test system: FAD-linked sulfhydryl oxidase ALR (Homo sapiens) (UniProt P55789)
Run description: ALR-catalysed DTT oxidation blockers – biochemical, H2O2 detection, HRP-luminol luminescence, single point, primary screen (AID 485317)
Test settings: purified ALR, active compounds read high, concentration not given here
Out of some 290,000 compounds screened, about 11,000 (3.8%) were called active. For the sample, actives were picked, then their nearest neighbours and some compounds at random.
Param threshold (60%) applies to inhibition; output met when value >= threshold, not met when value < threshold.

Example results:
>>> assigned_label("O=C(NCC1(N2CCCCC2)CCCCC1)c1ccc(NS(=O)(=O)c2ccc(F)cc2)cc1")
"not met"
>>> assigned_label("CCN(CC(=O)NCc1cccs1)C(=O)c1ccc(OC)c(S(=O)(=O)N2CCOCC2)c1")
"not met"
>>> assigned_label("Cc1cccc(-c2nc(CS(=O)CC(=O)NC(C)CCc3ccccc3)c(C)o2)c1 (configuration not stated)")
"met"
>>> assigned_label("CC(CCc1ccccc1)NC(=O)c1ccc(Br)o1 (configuration not stated)")
"not met"

Q: Dear colleague, could you confirm whether Cc1ccc(OCC(=O)NC(C)c2ccccc2)cc1C (configuration not stated) has inhibition at or above 60%?
A: not met

Q: In plain terms: is recorded inhibition at least 60% for CN(C)c1ccc(/C=N/NC(=O)c2ccc(Cn3cc(Br)cn3)o2)cc1 ?
A: met

Q: Decide: inhibition of CCn1c(SC(C)C(=O)Nc2ccc(N3CCOCC3)cc2)nnc1-c1ccco1 (configuration not stated) >= 60%?
A: not met

Q: Textbook exercise: given the entry C=CCn1c(C2CC(=O)N(c3ccc(C)cc3)C2)nc2ccccc21 (configuration not stated) , state whether its inhibition is greater than or equal to 60%.
A: met

Q: Determine whether this compound has inhibition no lower than 60%: COCCNC(=O)COc1ccc(C)c(C)c1
A: not met

Q: Decide: inhibition of Cc1ccc2nc(N3C(=O)C(O)=C(C(=O)c4ccco4)C3c3cccc(O)c3)sc2c1 (configuration not stated) >= 60%?
A: met

Q: Assess whether reported inhibition for COCCNC(=O)CN1C(=O)CSc2ncccc21 sits at 60% or higher.
A: met

Q: Is reported inhibition greater than or equal to 60% here: Cc1ccc(SC(=O)COc2ccc(C)c(C)c2)cc1
A: met

Q: Decide: inhibition of CC(C)(C)N1CC(c2nc3ccccc3n2Cc2ccc(F)cc2)CC1=O (configuration not stated) >= 60%?
A: not met

Q: Can Cc1cc(NC(=O)C(C)SCC(=O)Nc2ccccc2N2CCCCC2)no1 (configuration not stated) be said to have inhibition at or above 60%?
A: not met

Q: API: above_or_equal(metric=inhibition, cutoff=60%) for item O=C(CN1C(=O)CSc2ncccc21)N1CCOCC1
A: not met

Q: Determine whether measured inhibition meets or exceeds 60% for Cc1c(O)c(C)c2c(c1O)C(=O)C[C@@H](c1ccccc1)O2
A: not met

Q: # check: inhibition of C=CCSc1nnc(N2C(=O)C(O)=C(C(=O)c3ccco3)C2c2ccc(F)cc2)s1 (configuration not stated) is greater than or equal to 60%
A: met

Q: Form field: inhibition at least 60%? Entry: CCC(=O)N1CCc2cc(S(=O)(=O)CCC(=O)N3CCN(c4ccccc4F)CC3)ccc21
A: not met

====

Target or test system: FAD-linked sulfhydryl oxidase ALR (Homo sapiens)
Run description: ALR-catalysed DTT oxidation blockers – biochemical, H2O2 detection, HRP-luminol luminescence, single point, primary screen (AID 485317)
Test settings: purified ALR, active compounds read high, concentration not given here
The whole screen tested about 290,000 compounds, of which about 11,000 (3.8%) were called active. The list comes from a sample in which actives are over-represented; it also holds close analogues and randomly drawn compounds.
Observable: inhibition (%)
Numbers only, in %.

Guide cases for inhibition, answers given:
>>> numeric_result("NS(=O)(=O)c1ccc(N=Nc2c(O)[nH]c3ccc(Br)cc23)cc1")
-3.47
>>> numeric_result("COc1c(O)cc2oc(-c3ccc(O)c(O)c3)cc(=O)c2c1O")
99
>>> numeric_result("CC[C@@H]1Cc2cc(O)ccc2C2=C1c1ccc(O)cc1C[C@H]2CC")
97.9

Can you give me inhibition for all of these, one by one?
1. Cc1ccc(-c2nn(-c3ccccc3)cc2CN(Cc2ccccc2)C(=O)CCC(=O)O)o1
2. CCOC(=O)COc1cc(O)c2c(=O)cc(-c3ccccc3)oc2c1
3. O=C(NCC1CC1)c1onc(CSc2ccccc2)c1C(=O)NCC1CC1
4. Cc1ccc(C2(C)NC(=O)N(CC(=O)N3CC(=O)Nc4ccccc43)C2=O)cc1 (stereo unspecified)

A:
1. 97.6
2. -2.55
3. -11.1
4. 0.292

Provide reported inhibition for each item, in the same order as listed.
1. CCOC(=O)N1CCN(C(=O)c2ccc3c(c2)N(Cc2ccc(C)cc2)CCS3)CC1
2. O=C(O)CCC(=O)N(Cc1ccccc1)Cc1ccccc1
3. Oc1[nH]c2ccc(Br)cc2c1N=Nc1nn[nH]n1
4. Cc1ccc(-c2nn(-c3cccc(F)c3)cc2CNCCc2ccncc2)o1

A:
1: 93.4; 2: -2.42; 3: 89.8; 4: -14.7

Hello, the source for this data is PubChem BioAssay AID485317, in case you need it.
